- protocol.notes: Tmax in Sprague-Dawley rat at 10 mg/kg, po
- Assay type: ADME, organism-based
- condition: in vivo

smiles.record: O=S(=O)(Nc1cc(-c2cnc3[nH]ncc3c2)cnc1Cl)c1ccccc1
Tmax (h): 4

---

- protocol.notes: AUC (0 to t) in Sprague-Dawley rat at 10 mg/kg, po
- Format: ADME, organism-based
- Set-up: dose 10 mg/kg
- condition: in vivo

smiles.record: O=S(=O)(Nc1cc(-c2cnc3[nH]ncc3c2)cnc1Cl)c1ccccc1
units.of.measure: ng·h/mL
AUC(0-t): 9040

---

- assayed.target: Phosphatidylinositol 4,5-bisphosphate 3-kinase catalytic subunit gamma isoform (Homo sapiens)
- Sequence (P48736 whole entry, canonical isoform): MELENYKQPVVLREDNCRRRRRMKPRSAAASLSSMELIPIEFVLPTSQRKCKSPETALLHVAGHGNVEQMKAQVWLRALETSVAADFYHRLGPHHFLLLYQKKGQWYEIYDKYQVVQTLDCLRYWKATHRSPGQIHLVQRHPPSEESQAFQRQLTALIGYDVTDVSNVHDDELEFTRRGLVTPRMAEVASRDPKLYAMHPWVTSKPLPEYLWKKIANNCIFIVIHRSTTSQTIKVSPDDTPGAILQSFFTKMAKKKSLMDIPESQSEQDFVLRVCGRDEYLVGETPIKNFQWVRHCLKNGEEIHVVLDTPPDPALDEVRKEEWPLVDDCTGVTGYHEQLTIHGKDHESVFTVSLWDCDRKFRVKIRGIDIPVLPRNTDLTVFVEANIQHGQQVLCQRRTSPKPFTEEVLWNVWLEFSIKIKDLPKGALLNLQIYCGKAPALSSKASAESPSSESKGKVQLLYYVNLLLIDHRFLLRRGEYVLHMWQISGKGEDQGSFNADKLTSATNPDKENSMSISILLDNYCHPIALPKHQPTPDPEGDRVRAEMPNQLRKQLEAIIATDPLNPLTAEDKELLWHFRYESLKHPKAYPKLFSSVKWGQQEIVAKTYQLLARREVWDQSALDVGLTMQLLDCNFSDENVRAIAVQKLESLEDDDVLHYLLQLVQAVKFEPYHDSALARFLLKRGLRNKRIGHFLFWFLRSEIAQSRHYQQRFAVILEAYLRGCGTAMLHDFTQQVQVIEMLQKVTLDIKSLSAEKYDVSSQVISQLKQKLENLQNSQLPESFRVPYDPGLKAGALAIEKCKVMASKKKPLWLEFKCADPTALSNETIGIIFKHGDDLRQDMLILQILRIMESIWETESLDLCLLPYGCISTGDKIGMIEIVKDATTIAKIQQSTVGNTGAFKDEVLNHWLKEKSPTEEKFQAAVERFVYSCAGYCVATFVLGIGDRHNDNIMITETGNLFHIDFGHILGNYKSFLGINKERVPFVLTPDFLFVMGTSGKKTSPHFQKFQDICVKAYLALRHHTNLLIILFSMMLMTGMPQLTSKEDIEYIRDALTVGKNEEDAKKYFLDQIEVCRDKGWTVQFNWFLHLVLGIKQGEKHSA
- protocol.notes: Inhibition of PI3Kgamma (unknown origin) using PIP2 as substrate in presence of ATP measured after 60 mins by ADP-Glo assay
pIC50: −log10 of the molar value.
The entries below are paired with their reported pIC50.

smiles.record: O=S(=O)(Nc1cc(-c2cnc3[nH]ccc3n2)cnc1Cl)c1ccccc1
pIC50: 7.24
--
smiles.record: O=S(=O)(Nc1cc(-c2cnc3[nH]cnc3c2)cnc1Cl)c1ccccc1
pIC50: 7.68

---

- protocol.notes: Half life in Sprague-Dawley rat at 10 mg/kg, po
- Format: ADME, organism-based
- condition: in vivo
quantity.name: half-life (h)

smiles.record: O=S(=O)(Nc1cc(-c2cnc3[nH]ncc3c2)cnc1Cl)c1ccccc1
value: 3.74

---

- assayed.target: Phosphatidylinositol 4,5-bisphosphate 3-kinase catalytic subunit delta isoform (Homo sapiens, UniProt O00329)
- Sequence (O00329 whole entry, canonical isoform): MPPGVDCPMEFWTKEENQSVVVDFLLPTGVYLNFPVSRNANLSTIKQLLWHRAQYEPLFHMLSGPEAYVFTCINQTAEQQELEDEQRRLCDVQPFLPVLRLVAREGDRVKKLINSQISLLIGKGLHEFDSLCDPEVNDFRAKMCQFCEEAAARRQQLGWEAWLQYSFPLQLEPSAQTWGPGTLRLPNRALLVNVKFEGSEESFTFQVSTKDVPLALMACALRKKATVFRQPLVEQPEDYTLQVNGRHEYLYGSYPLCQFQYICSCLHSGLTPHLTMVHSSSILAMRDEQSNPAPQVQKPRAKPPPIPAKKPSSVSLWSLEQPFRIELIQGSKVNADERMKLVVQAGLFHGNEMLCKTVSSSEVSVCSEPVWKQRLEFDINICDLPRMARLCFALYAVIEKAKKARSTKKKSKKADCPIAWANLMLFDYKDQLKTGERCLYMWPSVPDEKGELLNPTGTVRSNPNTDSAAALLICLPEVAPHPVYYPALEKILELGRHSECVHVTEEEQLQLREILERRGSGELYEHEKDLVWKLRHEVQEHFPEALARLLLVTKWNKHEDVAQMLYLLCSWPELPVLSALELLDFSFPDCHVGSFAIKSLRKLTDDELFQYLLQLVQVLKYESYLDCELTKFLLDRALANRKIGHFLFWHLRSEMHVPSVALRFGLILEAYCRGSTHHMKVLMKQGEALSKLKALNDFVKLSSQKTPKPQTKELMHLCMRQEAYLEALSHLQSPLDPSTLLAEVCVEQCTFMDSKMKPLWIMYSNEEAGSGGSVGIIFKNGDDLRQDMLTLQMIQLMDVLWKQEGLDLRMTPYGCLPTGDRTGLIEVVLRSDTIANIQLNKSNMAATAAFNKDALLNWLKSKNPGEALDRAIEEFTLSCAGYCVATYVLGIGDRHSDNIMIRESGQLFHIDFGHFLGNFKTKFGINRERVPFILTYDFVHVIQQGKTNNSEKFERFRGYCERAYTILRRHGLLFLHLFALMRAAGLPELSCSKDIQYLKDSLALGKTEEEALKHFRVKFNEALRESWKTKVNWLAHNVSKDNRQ
- protocol.notes: Inhibition of PI3Kdelta (unknown origin) using PIP2 as substrate in presence of ATP measured after 60 mins by ADP-Glo assay
Binary label based on IC50 with cut-off 50 nM: below gives Condition met, not below gives Condition not met.

smiles.record: O=S(=O)(Nc1cc(-c2cnc3[nH]cnc3c2)cnc1Cl)c1ccccc1
class.label: Condition met
//
smiles.record: O=S(=O)(Nc1cc(-c2ccc3[nH]ccc3n2)cnc1Cl)c1ccccc1
class.label: Condition not met
//
smiles.record: O=S(=O)(Nc1cc(-c2cc3cn[nH]c3cn2)cnc1Cl)c1ccccc1
class.label: Condition not met
//
smiles.record: O=S(=O)(Nc1cc(-c2cnc3c(c2)CCN3)cnc1Cl)c1ccccc1
class.label: Condition not met
//
smiles.record: O=S(=O)(Nc1cc(-c2ccc3[nH]ncc3c2)cnc1Cl)c1ccccc1
class.label: Condition met
//
smiles.record: O=S(=O)(Nc1cc(-c2ccc3ocnc3c2)cnc1Cl)c1ccccc1
class.label: Condition met
//
smiles.record: O=S(=O)(Nc1cc(-c2ccc3c(c2)CCN3)cnc1Cl)c1ccccc1
class.label: Condition not met

---

- protocol.notes: Oral bioavailability in Sprague-Dawley rat at 10 mg/kg
- Type: ADME, organism-based
- condition: in vivo

smiles.record: O=S(=O)(Nc1cc(-c2cnc3[nH]ncc3c2)cnc1Cl)c1ccccc1
bioavailability, %: 17.6

---

- assayed.target: Phosphatidylinositol 4,5-bisphosphate 3-kinase catalytic subunit alpha isoform (Homo sapiens, UniProt P42336)
- Sequence (P42336 whole entry, canonical isoform): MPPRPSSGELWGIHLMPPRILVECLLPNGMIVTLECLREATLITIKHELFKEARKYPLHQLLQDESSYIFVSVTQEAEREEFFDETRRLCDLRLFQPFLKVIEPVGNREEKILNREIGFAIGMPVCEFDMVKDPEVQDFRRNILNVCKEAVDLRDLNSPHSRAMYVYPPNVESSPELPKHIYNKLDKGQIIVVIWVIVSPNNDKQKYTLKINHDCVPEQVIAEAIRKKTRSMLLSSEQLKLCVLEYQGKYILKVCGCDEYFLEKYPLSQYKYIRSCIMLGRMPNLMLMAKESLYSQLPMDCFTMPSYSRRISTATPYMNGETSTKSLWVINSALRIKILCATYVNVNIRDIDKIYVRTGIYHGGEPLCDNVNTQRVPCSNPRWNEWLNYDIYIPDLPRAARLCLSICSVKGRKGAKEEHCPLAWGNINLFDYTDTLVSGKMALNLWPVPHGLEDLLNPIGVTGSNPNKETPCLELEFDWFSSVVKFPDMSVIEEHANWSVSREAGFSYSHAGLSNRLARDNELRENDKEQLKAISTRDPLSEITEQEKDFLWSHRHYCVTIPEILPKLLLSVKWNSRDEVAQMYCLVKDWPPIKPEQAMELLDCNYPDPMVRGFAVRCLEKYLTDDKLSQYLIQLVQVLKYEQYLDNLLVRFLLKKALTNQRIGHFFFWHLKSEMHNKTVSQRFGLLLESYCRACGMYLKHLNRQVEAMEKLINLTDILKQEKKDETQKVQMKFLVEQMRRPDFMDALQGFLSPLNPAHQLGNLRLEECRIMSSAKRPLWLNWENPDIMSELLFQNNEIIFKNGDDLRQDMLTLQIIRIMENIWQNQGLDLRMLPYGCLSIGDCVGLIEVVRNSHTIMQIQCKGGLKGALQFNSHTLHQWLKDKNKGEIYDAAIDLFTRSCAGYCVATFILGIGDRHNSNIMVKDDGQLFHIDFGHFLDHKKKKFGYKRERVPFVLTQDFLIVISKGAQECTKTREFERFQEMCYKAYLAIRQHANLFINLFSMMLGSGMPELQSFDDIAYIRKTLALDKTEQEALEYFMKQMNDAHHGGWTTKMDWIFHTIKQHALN
- protocol.notes: Inhibition of PI3Kalpha (unknown origin) using PIP2 as substrate in presence of ATP measured after 60 mins by ADP-Glo assay
pIC50: −log10 of the molar value.

smiles.record: O=S(=O)(Nc1cc(-c2cnc3[nH]cnc3c2)cnc1Cl)c1ccccc1
pIC50: 7.55

smiles.record: O=S(=O)(Nc1cc(-c2cnc3[nH]ccc3n2)cnc1Cl)c1ccccc1
pIC50: 7.23

---

- Tested on: EOL1
- protocol.notes: Antiproliferative activity against human EOL1 cells assessed as reduction in cell viability measured after 48 hrs by CCK8 assay
- Format: functional, cell-based
- condition: EOL1, 48 h
quantity.name: IC50 (nM)

smiles.record: O=S(=O)(Nc1cc(-c2cnc3[nH]ncc3c2)cnc1Cl)c1ccccc1
assayed.target: EOL1
value: 2820

---

- protocol.notes: Antiproliferative activity against human MOLM16 cells assessed as reduction in cell viability measured after 48 hrs by CCK8 assay
- Assay type: functional, cell-based, MOLM-16
- condition: MOLM16, 48 h

smiles.record: O=S(=O)(Nc1cc(-c2cnc3[nH]ncc3c2)cnc1Cl)c1ccccc1
units.of.measure: nM
IC50: 870

---

- protocol.notes: Antiproliferative activity against p110 unexpressed human MM1.R cells assessed as reduction in cell viability measured after 48 hrs by CCK8 assay
- Assay type: functional
- condition: MM.1R
pIC50: −log10 of the molar value.

smiles.record: O=S(=O)(Nc1cc(-c2cnc3[nH]ncc3c2)cnc1Cl)c1ccccc1
pIC50: 4.64

---

- assayed.target: Phosphatidylinositol 4,5-bisphosphate 3-kinase catalytic subunit beta isoform (Homo sapiens, UniProt P42338)
- Sequence (P42338 whole entry, canonical isoform): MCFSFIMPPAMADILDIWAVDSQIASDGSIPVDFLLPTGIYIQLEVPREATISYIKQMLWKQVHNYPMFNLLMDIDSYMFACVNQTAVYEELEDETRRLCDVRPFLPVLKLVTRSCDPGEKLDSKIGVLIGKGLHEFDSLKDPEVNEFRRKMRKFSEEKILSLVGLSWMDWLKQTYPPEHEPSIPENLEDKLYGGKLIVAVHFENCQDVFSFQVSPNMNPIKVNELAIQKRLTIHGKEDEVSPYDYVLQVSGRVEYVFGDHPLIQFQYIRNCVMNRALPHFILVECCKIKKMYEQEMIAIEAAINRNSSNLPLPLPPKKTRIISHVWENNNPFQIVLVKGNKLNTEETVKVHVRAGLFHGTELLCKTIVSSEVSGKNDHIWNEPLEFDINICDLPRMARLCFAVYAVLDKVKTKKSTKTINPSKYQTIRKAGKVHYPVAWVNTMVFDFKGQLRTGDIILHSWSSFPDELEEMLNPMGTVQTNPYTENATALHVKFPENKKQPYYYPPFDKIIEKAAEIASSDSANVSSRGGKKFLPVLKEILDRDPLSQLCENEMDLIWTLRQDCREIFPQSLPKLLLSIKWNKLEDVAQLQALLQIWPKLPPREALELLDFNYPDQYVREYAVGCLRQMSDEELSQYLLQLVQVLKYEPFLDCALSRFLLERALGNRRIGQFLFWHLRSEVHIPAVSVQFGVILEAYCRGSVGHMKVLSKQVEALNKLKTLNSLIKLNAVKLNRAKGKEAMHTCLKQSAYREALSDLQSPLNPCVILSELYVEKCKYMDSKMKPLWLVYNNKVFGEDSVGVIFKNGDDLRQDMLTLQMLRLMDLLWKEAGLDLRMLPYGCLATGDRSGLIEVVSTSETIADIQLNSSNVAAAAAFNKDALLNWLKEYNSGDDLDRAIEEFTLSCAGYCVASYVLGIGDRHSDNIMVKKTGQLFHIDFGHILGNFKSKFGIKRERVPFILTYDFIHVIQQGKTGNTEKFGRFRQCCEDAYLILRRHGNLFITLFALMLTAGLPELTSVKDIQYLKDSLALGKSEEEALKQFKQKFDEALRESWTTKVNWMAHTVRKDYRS
- protocol.notes: Inhibition of PI3Kbeta (unknown origin) using PIP2 as substrate in presence of ATP measured after 60 mins by ADP-Glo assay
The entries below are paired with their reported IC50.
quantity.name: IC50 (nM)

smiles.record: O=S(=O)(Nc1cc(-c2cnc3[nH]cnc3c2)cnc1Cl)c1ccccc1
value: 26
//
smiles.record: O=S(=O)(Nc1cc(-c2cnc3[nH]ccc3n2)cnc1Cl)c1ccccc1
value: 80
